Recorded melting point values for a group of molecules are listed next.

Use these answered entries as a reference point.
COc1ccc2[nH]cc(-c3nc(-c4c[nH]c5c(Cl)nccc45)cs3)c2c1 [Compound 4b] :: 223 to 224 °C
Cn1cc(-c2csc(-c3c[nH]c4ccc(F)cc34)n2)c2ccnc(Cl)c21 [Compound 2i] :: 284 to 285 °C
COc1ccc2c(c1)c(-c1nc(-c3c[nH]c4c(Cl)nccc34)cs1)cn2C [Compound 2b] :: 216 to 217 °C
Cn1cc(-c2csc(-c3cn(C)c4ncccc34)n2)c2cc(F)cnc21 [Compound 1i] :: 301 to 302 °C
Cn1cc(-c2nc(-c3c[nH]c4c(Cl)nccc34)cs2)c2ccccc21 [Compound 2a] :: 326 to 327 °C
Cn1cc(-c2csc(-c3cn(C)c4ncccc34)n2)c2cccnc21 [Compound 1g] :: 310 to 311 °C

melting point for Brc1cnc2[nH]cc(-c3csc(-c4c[nH]c5ncccc45)n3)c2c1 [Compound 1b] ?
390 to 391 °C

melting point for COc1ccc2[nH]cc(-c3nc(-c4cn(C)c5c(Cl)nccc45)cs3)c2c1 [Compound 4e] ?
184 to 185 °C

melting point for Cn1cc(-c2nc(-c3cn(C)c4c(Cl)nccc34)cs2)c2cc(F)ccc21 [Compound 2h] ?
284 to 285 °C

melting point for Cn1cc(-c2csc(-c3c[nH]c4ccccc34)n2)c2ccnc(Cl)c21 [Compound 4d] ?
210 to 211 °C
